# IC50 per entry
Biological target: T. cruzi IMPDH (Trypanosoma cruzi, UniProt Q4CUG6)
Sequence (Q4CUG6 entry or part of it): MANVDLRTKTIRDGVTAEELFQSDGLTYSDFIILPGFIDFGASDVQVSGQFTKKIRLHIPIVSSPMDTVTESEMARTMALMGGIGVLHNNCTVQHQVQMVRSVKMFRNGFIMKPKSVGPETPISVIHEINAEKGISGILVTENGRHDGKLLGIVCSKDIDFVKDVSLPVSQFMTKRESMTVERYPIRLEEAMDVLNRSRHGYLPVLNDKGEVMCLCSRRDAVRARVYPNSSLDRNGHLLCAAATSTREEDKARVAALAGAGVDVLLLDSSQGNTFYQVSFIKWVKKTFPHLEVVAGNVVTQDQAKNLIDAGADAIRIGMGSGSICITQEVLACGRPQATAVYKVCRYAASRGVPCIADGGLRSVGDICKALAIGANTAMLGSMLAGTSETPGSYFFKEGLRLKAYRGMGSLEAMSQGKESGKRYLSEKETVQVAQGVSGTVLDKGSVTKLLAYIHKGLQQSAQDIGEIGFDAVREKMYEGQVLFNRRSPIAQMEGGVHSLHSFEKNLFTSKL
Test: biochemical

Example cases with answers are listed next.
INSERT INTO measurements (molecule, reported_result) VALUES
  ('COc1cc(NC(=O)Nc2cccc(CNC(=O)O[C@@H]3CCOC3)c2)ccc1-c1cnco1 [(R)-Merimepodib]', '370 nM'),
  ('COc1cc(NC(=O)Nc2cccc(CNC(=O)O[C@H]3CCOC3)c2)ccc1-c1cnco1 [(S)-Merimepodib]', '210 nM');

// below: IC50 requested for another molecule
stdin: Short answer please: IC50, T. cruzi IMPDH (Trypanosoma cruzi, UniProt Q4CUG6), entry CC[C@H](CC#N)OC(=O)N[C@@H](C)c1cccc(NC(=O)Nc2ccc(-c3cnco3)c(OC)c2)c1 [AVN-944]
stdout: 200 nM
